# Tested on: Cyclin-dependent kinase
# Protocol Summary: Cyclin-dependent kinase inhibition, % inhibition at 10 nM (library Examples 99-270)
# Assay type: biochemical
# Details: 10 nM compound
# Protocol: Cyclin-dependent kinase activity was measured by quantifying the enzyme-catalyzed, time-dependent incorporation of radioactive phosphate from [^32P]ATP or [^33P]ATP into a protein substrate. […] The phosphorylated substrate was then captured on a nitrocellulose or phosphocellulose membrane using a 96-well filtration manifold, and unincorporated radioactivity was removed by repeated washing with 0.85% phosphoric acid. Radioactivity was quantified by exposing the dried membranes to a phosphorimager. […]
Listed next: entries and their corresponding % Inhib @ 10 nM.

- Smiles Data: "CCNCc1cncc(-c2ccc3[nH]nc(-c4ncc(C(=O)N5CCCN(C)CC5)[nH]4)c3c2)c1C"
  % Inhib @ 10 nM / %: 38
- Smiles Data: "CCNCc1cncc(-c2ccc3[nH]nc(-c4ncc(C(=O)N5CCN(c6ccccn6)CC5)[nH]4)c3c2)c1C"
  % Inhib @ 10 nM / %: 72
- Smiles Data: "CCNCc1cncc(-c2ccc3[nH]nc(-c4ncc(C(=O)NC[C@]5(O)CC[C@H](c6ccccc6)CC5)[nH]4)c3c2)c1C"
  % Inhib @ 10 nM / %: 77
- Smiles Data: "CCNCc1cncc(-c2ccc3[nH]nc(-c4ncc(C(=O)NCCc5cc(OC)c(O)c(OC)c5)[nH]4)c3c2)c1C"
  % Inhib @ 10 nM / %: 28

---

# System: Cyclin-dependent kinase
# Protocol Summary: Cyclin-dependent kinase inhibition, % inhibition at 10 nM (library Examples 99-270)
# Type: biochemical
# Details: 10 nM compound
Decide using % Inhib @ 10 nM: a value greater than or equal to 60% is t, a smaller one is f.

- Compound: "CCNCc1cncc(-c2ccc3[nH]nc(-c4ncc(C(=O)N5CCN(c6ccc(F)cc6F)CC5)[nH]4)c3c2)c1C"
  Tested Target: "Cyclin-dependent kinase"
  Assigned Label: "t"
- Compound: "CCNCc1cncc(-c2ccc3[nH]nc(-c4ncc(C(=O)N5CCCC(O)(CN6CCOCC6)CC5)[nH]4)c3c2)c1C (centres unmarked)"
  Tested Target: "Cyclin-dependent kinase"
  Assigned Label: "f"
- Compound: "CCNCc1cncc(-c2ccc3[nH]nc(-c4ncc(C(=O)NCc5ccc6[nH]c(C)cc6c5)[nH]4)c3c2)c1C"
  Tested Target: "Cyclin-dependent kinase"
  Assigned Label: "t"
- Compound: "CCNCc1cncc(-c2ccc3[nH]nc(-c4ncc(C(=O)NCc5ccc(C(F)(F)F)nc5)[nH]4)c3c2)c1C"
  Tested Target: "Cyclin-dependent kinase"
  Assigned Label: "f"
- Compound: "CCNCc1cncc(-c2ccc3[nH]nc(-c4ncc(C(=O)N5CCCC(c6nc7ccccc7[nH]6)C5)[nH]4)c3c2)c1C (centres unmarked)"
  Tested Target: "Cyclin-dependent kinase"
  Assigned Label: "f"
- Compound: "CCNCc1cncc(-c2ccc3[nH]nc(-c4ncc(C(=O)NCCc5cccc(OC)c5)[nH]4)c3c2)c1C"
  Tested Target: "Cyclin-dependent kinase"
  Assigned Label: "t"
- Compound: "CCNCc1cncc(-c2ccc3[nH]nc(-c4ncc(C(=O)NCC56C=CC(O5)[C@H]5C(=O)N(C)C(=O)[C@H]56)[nH]4)c3c2)c1C (some centres unmarked)"
  Tested Target: "Cyclin-dependent kinase"
  Assigned Label: "f"
- Compound: "CCNCc1cncc(-c2ccc3[nH]nc(-c4ncc(C(=O)NCc5ccc(S(C)(=O)=O)cc5)[nH]4)c3c2)c1C"
  Tested Target: "Cyclin-dependent kinase"
  Assigned Label: "f"
- Compound: "CCNCc1cncc(-c2ccc3[nH]nc(-c4ncc(C(=O)N5CCc6nc(C)sc6C5)[nH]4)c3c2)c1C"
  Tested Target: "Cyclin-dependent kinase"
  Assigned Label: "t"
- Compound: "CCNCc1cncc(-c2ccc3[nH]nc(-c4ncc(C(=O)N5CCCN(C(C)=O)CC5)[nH]4)c3c2)c1C"
  Tested Target: "Cyclin-dependent kinase"
  Assigned Label: "f"
- Compound: "CCNCc1cncc(-c2ccc3[nH]nc(-c4ncc(C(=O)N5C[C@H](C(=O)OC)[C@@H](c6cccnc6)C5)[nH]4)c3c2)c1C"
  Tested Target: "Cyclin-dependent kinase"
  Assigned Label: "f"
- Compound: "CCNCc1cncc(-c2ccc3[nH]nc(-c4ncc(C(=O)N(CCC#N)CC5CCCO5)[nH]4)c3c2)c1C (centres unmarked)"
  Tested Target: "Cyclin-dependent kinase"
  Assigned Label: "f"
- Compound: "CCNCc1cncc(-c2ccc3[nH]nc(-c4ncc(C(=O)N5CCN(c6cnccn6)CC5)[nH]4)c3c2)c1C"
  Tested Target: "Cyclin-dependent kinase"
  Assigned Label: "f"
- Compound: "CCNCc1cncc(-c2ccc3[nH]nc(-c4ncc(C(=O)N(CC)CC)[nH]4)c3c2)c1C"
  Tested Target: "Cyclin-dependent kinase"
  Assigned Label: "t"

---

# Protocol Summary: Measurement of kinetic solubility
# Details: 100 mM sodium phosphate buffer, pH 6.5, aqueous buffer, kinetic from dmso stock
Measured Endpoint: solubility

- Smiles Data: "CCNCc1cncc(-c2ccc3[nH]nc(-c4nc(C(=O)NCCOC)c[nH]4)c3c2)c1C"
  Value Measured: "> 120 µg/mL"
- Smiles Data: "CCNCc1cncc(-c2ccc3[nH]nc(-c4nc(-c5ccccc5)c(C(=O)NCCCOC)[nH]4)c3c2)c1C"
  Value Measured: "> 120 µg/mL"
- Smiles Data: "CCNCc1cncc(-c2ccc3[nH]nc(-c4nc(CC)c(C)[nH]4)c3c2)c1C"
  Value Measured: "> 120 µg/mL"
- Smiles Data: "CCNCc1cncc(-c2ccc3[nH]nc(-c4nc(-c5ccccc5)c(C(=O)NC5CCCC5)[nH]4)c3c2)c1C"
  Value Measured: "20 to 120 µg/mL"
- Smiles Data: "CCNCc1cncc(-c2ccc3[nH]nc(-c4nc(C(=O)NC(C)C)c[nH]4)c3c2)c1C"
  Value Measured: "> 120 µg/mL"
- Smiles Data: "CCNCc1cncc(-c2ccc3[nH]nc(-c4ncc(C(=O)N[C@H]5CCc6ccccc65)[nH]4)c3c2)c1C"
  Value Measured: "20 to 120 µg/mL"
- Smiles Data: "CCOCc1cncc(-c2ccc3[nH]nc(-c4nc5c([nH]4)CCCC5)c3c2)c1C"
  Value Measured: "20 to 120 µg/mL"
- Smiles Data: "CCNCc1cncc(-c2ccc3[nH]nc(-c4nc(-c5cccc(F)c5)c[nH]4)c3c2)c1C"
  Value Measured: "> 120 µg/mL"
- Smiles Data: "CCNCc1cncc(-c2ccc3[nH]nc(-c4nc(-c5cccc(C(F)(F)F)c5)c(C)[nH]4)c3c2)c1C"
  Value Measured: "< 20 µg/mL"
- Smiles Data: "CCNCc1cncc(-c2ccc3[nH]nc(-c4nc(-c5ccccc5)c(C(=O)NCC(C)C)[nH]4)c3c2)c1C"
  Value Measured: "20 to 120 µg/mL"
- Smiles Data: "CCNCc1cncc(-c2ccc3[nH]nc(-c4ncc(C(=O)N5CCN(Cc6ccccn6)CC5)[nH]4)c3c2)c1C"
  Value Measured: "> 120 µg/mL"
- Smiles Data: "CCNCc1cncc(-c2ccc3[nH]nc(-c4ncc(C(=O)N[C@@H]5CCc6ccccc65)[nH]4)c3c2)c1C"
  Value Measured: "20 to 120 µg/mL"
- Smiles Data: "CCOCc1cncc(-c2ccc3[nH]nc(-c4ncc[nH]4)c3c2)c1C"
  Value Measured: "> 120 µg/mL"
- Smiles Data: "CCNCc1cncc(-c2ccc3[nH]nc(-c4nc(C(=O)NCc5cccnc5)c[nH]4)c3c2)c1C"
  Value Measured: "> 120 µg/mL"
- Smiles Data: "CCNCc1cncc(-c2ccc3[nH]nc(-c4ncc(C(=O)N5Cc6ccccc6C5)[nH]4)c3c2)c1C"
  Value Measured: "< 20 µg/mL"

---

# Test system: Cyclin-dependent kinase
# Protocol Summary: Cyclin-dependent kinase inhibition, % inhibition at 10 nM (library Examples 99-270)
# Assay type: biochemical
# Details: 10 nM compound
Threshold rule: % Inhib @ 10 nM greater than or equal to 40% is True; below that, False.

- Molecule: "CCNCc1cncc(-c2ccc3[nH]nc(-c4ncc(C(=O)N[C@H](c5ccccc5)[C@@H](O)c5ccccc5)[nH]4)c3c2)c1C"
  Assigned Label: "True"
- Molecule: "CCNCc1cncc(-c2ccc3[nH]nc(-c4ncc(C(=O)N5CCCC5c5cccc6ccccc56)[nH]4)c3c2)c1C (centres unmarked)"
  Assigned Label: "False"
- Molecule: "CCNCc1cncc(-c2ccc3[nH]nc(-c4ncc(C(=O)N[C@H](CO)Cc5c[nH]c6ccccc56)[nH]4)c3c2)c1C"
  Assigned Label: "False"
- Molecule: "CCNCc1cncc(-c2ccc3[nH]nc(-c4ncc(C(=O)N[C@H](C(=O)NC)[C@@H](C)O)[nH]4)c3c2)c1C"
  Assigned Label: "True"
- Molecule: "CCNCc1cncc(-c2ccc3[nH]nc(-c4ncc(C(=O)N5CCN(C(C)=O)CC5)[nH]4)c3c2)c1C"
  Assigned Label: "True"
- Molecule: "CCNCc1cncc(-c2ccc3[nH]nc(-c4ncc(C(=O)N[C@@H](CO)Cc5c[nH]c6ccccc56)[nH]4)c3c2)c1C"
  Assigned Label: "True"
- Molecule: "CCNCc1cncc(-c2ccc3[nH]nc(-c4ncc(C(=O)N(C)CC)[nH]4)c3c2)c1C"
  Assigned Label: "True"
- Molecule: "CCNCc1cncc(-c2ccc3[nH]nc(-c4ncc(C(=O)NCC5CCCO5)[nH]4)c3c2)c1C (centres unmarked)"
  Assigned Label: "True"
- Molecule: "CCNCc1cncc(-c2ccc3[nH]nc(-c4ncc(C(=O)NCCO)[nH]4)c3c2)c1C"
  Assigned Label: "True"
- Molecule: "CCNCc1cncc(-c2ccc3[nH]nc(-c4ncc(C(=O)N5CCC(CO)CC5)[nH]4)c3c2)c1C"
  Assigned Label: "True"
- Molecule: "CCNCc1cncc(-c2ccc3[nH]nc(-c4ncc(C(=O)N5CCC(Cc6ccc(C(N)=O)cc6)CC5)[nH]4)c3c2)c1C"
  Assigned Label: "True"
- Molecule: "CCNCc1cncc(-c2ccc3[nH]nc(-c4ncc(C(=O)NCCC56CCCN5CCC6)[nH]4)c3c2)c1C"
  Assigned Label: "False"
- Molecule: "CCNCc1cncc(-c2ccc3[nH]nc(-c4ncc(C(=O)N5CC6C[C@H]5CN6)[nH]4)c3c2)c1C"
  Assigned Label: "True"
- Molecule: "CCNCc1cncc(-c2ccc3[nH]nc(-c4ncc(C(=O)N5CCCC(O)(CN6CCCC6=O)CC5)[nH]4)c3c2)c1C (centres unmarked)"
  Assigned Label: "False"

Source listed as patent US20050090529A1.
